Values compiled from PubChem BioAssay.

- ASSAY_EXPLANATION: small-molecule microarray binders of probe aLefty2, primary screen, biochemical, biotinylated probe, 635/667 nm fluorescence (AID 1094);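 note: score merges spot fluorescence near 667 nm with spot signal-to-noise ratio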
- CONDITION_LABEL: higher = more signal
Exercise: for every item that follows, state its recorded composite z-score.
Reply: number alone, nothing else.

Name the reported composite z-score value associated with the molecule COc1ccc([Si](C)(C)[C@@H]2[C@@H](CC(=O)N3CCC[C@H]3CO)O[C@]3(C(=O)N(Cc4ccc(N5CCC5=O)cc4)c4ccccc43)[C@H]2C)cc1
-0.166

Continue with C=C(C(=O)CC[C@@H](OC(C)=O)c1ccccc1OCCO)C(C)C
-0.2

Now this one: NC(=O)NCC#Cc1ccc2c(c1)[C@]1(C(=O)N2)[C@H](c2ccc(OCCO)cc2)N2[C@H](c3ccccc3)[C@H](c3ccccc3)OC(=O)[C@H]2[C@@H]1C(=O)Nc1nc2ccccc2s1
0.289

Now try COCCOC(=O)N1C(=O)[C@@]2(c3ccccc31)[C@H](C(=O)Nc1nc3ccccc3s1)[C@H]1C(=O)O[C@H](c3ccccc3)[C@H](c3ccccc3)N1[C@@H]2c1ccc(O)cc1 .
0.219

And what about the molecule C=CC[C@@]1(C(=O)NCc2ccccc2)N=C(c2ccc(OCCCO)cc2)O[C@@H]1c1ccccc1 ?
0.195

###

- ASSAY_EXPLANATION: MM1S cell viability effects, profiling panel, calcein-AM fluorescence, 48 h, basal (AID 1165);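 note: viability of MM1S multiple myeloma cells under basal unstimulated conditions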
- CONDITION_LABEL: higher = more signal
QUANTITY_MEASURED: z-score
Lab note: jot down the number only; don't add units.

Item under review: CO[C@H]1O[C@H](CO)[C@@H](OC(=O)Nc2ccccc2)[C@H](OC(=O)Nc2ccc3c(c2)OCO3)[C@H]1OC(=O)Nc1ccc2c(c1)OCO2 . Reported z-score?
-1.03

Also check CC(C)C(=C=CC[C@@H](O)c1ccc(CO)o1)CCO
0.288

Now consider COCCCNC(=O)[C@@]1(Cc2ccccc2CN=[N+]=[N-])COC(c2ccc(OCCCO)cc2)=N1 and answer again.
-2.46

Can you check C=CCC(OC(C)=O)[C@@H]1[C@@H](N(Cc2cc3ccccc3o2)C(=O)c2ccc(-c3ccccc3)cc2)c2cc(OCCCO)ccc2N1C(=O)c1ccc(-c2ccccc2)cc1 (some centres not stated) next?
0.402

Likewise for C=CCNC(=O)[C@@H]1[C@H]2C(=O)O[C@H](c3ccccc3)[C@H](c3ccccc3)N2[C@H](c2ccc(O)cc2)[C@@]12C(=O)Nc1ccccc12 ?
0.306

Proceed to CCOC(=O)C[C@H]1[C@H](OC(=O)c2ccc(-c3ccccc3)cc2)[C@@H](NC(=O)C2CCCCC2)c2cc(OCCCO)ccc2N1C(=O)c1ccc2ccccc2n1
0.881

O=C(O)[C@H]1C[C@H]2C(=O)N[C@@H](Cc3ccccc3)C(=O)N2[C@H]1c1ccc(O)cc1 , same question.
0.41

###

- ASSAY_EXPLANATION: mitochondrial membrane potential change in A549 cells, profiling panel, cell-based, JC-1 fluorescence, basal, 24 h, 100 nL (AID 1138);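 note: A549 lung adenocarcinoma cells under basal conditions with no added stimulus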
- CONDITION_LABEL: higher = more signal
What z-score was measured for each of the following?
Kindly provide the number alone.

For COC(=O)c1c(CC[C@@H](CO)NC(=O)Nc2ccc(OC)cc2)oc(C(=O)Cc2ccccc2)c1C(=O)OC , what is its reported z-score?
1.02

Same again, this time with C/C=C/[C@@H](CCn1cc(CCO[Si](C(C)C)(C(C)C)C(C)C)nn1)[Si](C)(C)c1ccc(OC)cc1
4.63

What do we get for CCOC(=O)C[C@H]1[C@H](OC(=O)Cc2ccc3c(c2)OCO3)[C@@H](NC(=O)c2ccc3ccccc3c2)c2cc(OCCCO)ccc2N1C(=O)c1ccc2ccccc2n1 ?
2.55

Okay, and C=CCOC(=O)[C@H]1[C@@H]2C(=O)O[C@@H](c3ccccc3)[C@@H](c3ccccc3)N2[C@@H](c2ccc(OCCOC(=O)[C@H]3C[C@H]4C(=O)N5CCC[C@H]5C(=O)N4[C@H]3c3cccc(OCCO)c3)cc2)[C@]12C(=O)Nc1ccccc12 ?
-0.851

Continue with CCOC(=O)C[C@H]1[C@H](OC(=O)c2cc3ccccc3oc2=O)[C@@H](NC(=O)c2ccccc2)c2cc(OCCCO)ccc2N1C(=O)Cc1ccc(OC)cc1
-0.42

Further, for COc1ccc([Si](C)(C)[C@H]2[C@H](CC(=O)N(CCO)Cc3ccccc3)O[C@@]3(C(=O)N(Cc4ccc(N5CCC5=O)cc4)c4ccccc43)[C@@H]2C)cc1 ?
0.0735

Similarly, CC(C)(C)OC(=O)CC[C@@]12N=C(c3ccc(OCCCO)cc3)O[C@@H]1c1ccccc1CN(Cc1ccccc1)C2=O ?
1.09

Next molecule up: COc1ccc([Si](C)(C)[C@H]2[C@H](CC(=O)N(CCO)Cc3ccccc3)O[C@@]3(C(=O)N(Cc4ccc(N5CCOC5=O)cc4)c4ccccc43)[C@@H]2C)cc1
0.784

Then this molecule: C=C(COC)C(=O)CC[C@H](OC(=O)c1cccnc1)c1cccc(OCCO)c1
1.39

Also check C[N+](C)(C)CCCCNC(=O)[C@@H]1C[C@@H]2C(=O)NCC(=O)N2[C@@H]1c1cccc(OCCO)c1
1.87

// query: CC(C)N1CC=CC23O[C@@H]4/C=C\CCCOC(=O)C4[C@H]2C(=O)N(CCCO)[C@@H]3C1=O (stereo partly specified)
1.25

###

- ASSAY_EXPLANATION: IOSE-T80 ovarian epithelial cell cytotoxicity, dose response, cytotoxicity control for PAX8 inhibitor project, plate reader, dry powder samples (AID 743045);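 note: 0% = neutral control median and -100% = positive control median; more negative values mean more cell killing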
- CONDITION_LABEL: IOSE-T80 ovarian epithelial cells; series mostly up to 35 µM
Potency and affinity values are given separately. Calls of active or inactive are those of the source. No rule for the calls is given here.

{"SUBSTANCE_SMILES": "C[C@@H]1CCCCO[C@H](CN(C)S(=O)(=O)c2ccc(Cl)cc2)[C@@H](C)CN([C@@H](C)CO)C(=O)c2cc(NS(=O)(=O)c3ccc(F)cc3)ccc2O1", "activity change, negative = cytotoxicity": "inactive"}
{"SUBSTANCE_SMILES": "C[C@@H]1CN([C@H](C)CO)C(=O)c2cc(NS(=O)(=O)c3ccccc3)ccc2O[C@@H](C)CCCCO[C@@H]1CN(C)Cc1ccc(Cl)c(Cl)c1", "activity change, negative = cytotoxicity": "inactive"}
{"SUBSTANCE_SMILES": "O=C(NC1CCCC1)N1CCCCN2[C@@H](CO)[C@@H](c3ccc(/C=C/c4ccccc4)cc3)[C@@H]2C1", "activity change, negative = cytotoxicity": "inactive"}

###

- ASSAY_EXPLANATION: small-molecule binders of probe aNOTCH3, primary screen, biochemical, small-molecule microarray, 635/667 nm fluorescence (AID 1120);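 note: probe is a biotin-tagged antibody raised against NOTCH3 rather than NOTCH3 protein; score merges spot fluorescence near 667 nm with spot signal to noise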
- CONDITION_LABEL: higher = more signal
QUANTITY_MEASURED: composite z-score
Output: the number by itself.

Return reported composite z-score; argument: COc1ccc([Si](C)(C)[C@H]2[C@H](CC(=O)N(CCO)Cc3ccccc3)O[C@@]3(C(=O)N(Cc4ccc(N5CCOC5=O)cc4)c4ccccc43)[C@@H]2C)cc1
-0.0044

// same read-out, input: COCCOC(=O)N1C(=O)[C@@]2(c3cc(C#CC4(O)CCCCCC4)ccc31)[C@H](c1ccccc1OCCO)N1[C@H](c3ccccc3)[C@H](c3ccccc3)OC(=O)[C@H]1[C@@H]2C(=O)Nc1nc2ccccc2s1
-0.0942

Likewise for CC(=O)NCCCC[C@@H]1NC(=O)[C@@H]2C[C@H](C(=O)O)[C@H](c3cccc(OCCO)c3)N2C1=O ?
-0.126

###

- ASSAY_EXPLANATION: anti-His antibody binders, primary screen, artefact control for SMM control protein annotation, biochemical, small-molecule microarray, 635 nm fluorescence (AID 1128);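 note: score merges feature fluorescence with signal-to-noise for each printed compound spot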
- CONDITION_LABEL: anti-His Alexa647 antibody binding, higher = more signal
Quick rule: composite z-score of at least -0.2 means yes, below that means no.

I'd appreciate it if you could say whether O=C(NCC(F)(F)F)[C@@H]1c2ccccc2C(=O)N(C2Cc3ccccc3C2)[C@H]1c1ccc(CO)cc1 has composite z-score at least equal to -0.2.
no

Also check CCCNC(=O)[C@@]1(Sc2ccc(C)cc2)CC(=O)N(Cc2cc(C(F)(F)F)cc(C(F)(F)F)c2)[C@@H]1c1ccc(CO)cc1I
yes

Next record, please: CO[C@H]1O[C@H](CO)[C@@H](OC(=O)Nc2ccccc2)[C@H](OC(=O)Nc2ccccc2-c2ccccc2)[C@@H]1OC(=O)Nc1ccccc1-c1ccccc1
yes

Then C=CC[C@]1(C(=O)N2CCCCC2)COC(c2ccc(OCCCO)cc2)=N1 ?
no

What about Cc1ccc(S[C@]2(C(=O)NC3CC3)CC(=O)N(Cc3ccccc3C(F)(F)F)[C@@H]2c2ccc(CO)cc2I)cc1 ?
no

Proceed to CC(C)(C)OC(=O)CC[C@@]1(C(=O)NCc2ccccc2)N=C(c2ccc(OCCCO)cc2)O[C@@H]1c1ccccc1CN=[N+]=[N-]
yes

What would you report for COCCOC(=O)N1C(=O)[C@@]2(c3cc(C#CCNC(N)=O)ccc31)[C@H](c1ccccc1OCCO)N1[C@H](c3ccccc3)[C@H](c3ccccc3)OC(=O)[C@H]1[C@@H]2C(=O)Nc1nc2ccccc2s1 ?
yes
